These measurements were taken from patent US11524968B2.

Below, each of the compounds is paired with its reported pIC50 value.
Target: JAK1 (Homo sapiens (Human))
Assay: Analysis of JAK1 activity inhibition ability (ADP-Glo Kinase Assay)
Assay type: biochemical
Conditions: JAK1 enzyme, ADP-Glo luminescence, ATP 250 uM, IRS-itide substrate, 30° C. 40 minutes; read-out: IC50
Protocol: Test Example 1: Analysis of JAK1 Activity Inhibition Ability of Compound of Formula 1 (ADP-Glo™ Kinase Assay) A JAK inhibition ability of a compound according to the present invention was identified as follows. A control material and a test material were prepared for each concentration, in such a way that they were diluted by means of DMSO. […]
pIC50: −log10 of the molar value.

compound=O=C(Nc1nc(-c2ccc(NS(=O)(=O)c3ccc(Cl)cc3)cc2)c2cc[nH]c2n1)C1CC1 measuredresult="6.70 to 7.70"
compound=N#CCCC(=O)N1C[C@H]2C[C@@H]1CN2c1cc(NC(=O)C2CC2)nc2[nH]ccc12 measuredresult="< 6.70"
compound=CCc1cc(NS(=O)(=O)CCCC#N)ccc1-c1cc(NC(=O)C2CC2)nc2[nH]ccc12 measuredresult="> 7.70"
compound=CSc1ccc(S(=O)(=O)Nc2ccc(-c3cc(NC(=O)C4CC4)nc4[nH]ccc34)cc2)cc1 measuredresult="6.70 to 7.70"
compound=O=C(Nc1cc(-c2ccc(C(=O)N3CCS(=O)(=O)CC3)cc2)c2cc[nH]c2n1)C1CC1 measuredresult="< 6.70"

pIC50 measured on COC(=O)C1(C(=O)N2CC=C(c3cc(NC(=O)C4CC4)nc4[nH]ccc34)C(C)C2)CC1 (centres unmarked) = < 6.70

pIC50 measured on "N#CCC1(N2CC=C(c3cc(NC(=O)C4CC4)nc4[nH]ccc34)CC2)CNC1" = 6.70 to 7.70

pIC50 measured on "O=C(Nc1cc(C2=CCN(C(=O)c3ccnc(F)c3)CCC2)c2cc[nH]c2n1)C1CC1" = > 7.70

====

Below, each of the compounds is paired with its reported pIC50 value.
Molecular target: UniProt P23458
Assay: Analysis of JAK1 activity inhibition ability (ADP-Glo Kinase Assay)
Assay type: biochemical
Details: JAK1 enzyme, ADP-Glo luminescence, ATP 250 uM, IRS-itide substrate, 30° C. 40 minutes; read-out: IC50
pIC50: −log10 of the molar value.

Solved cases below.
compound=N#CCCC(=O)N1CC=C(c2cc(NC(=O)C3CC3)nc3[nH]ccc23)CC1 measuredresult="> 7.70"
compound="Cc1ccsc1C(=O)N1CC=C(c2cc(NC(=O)C3CC3)nc3[nH]ccc23)C(C)C1 (stereo not shown)" measuredresult="6.70 to 7.70"
compound="O=C(Nc1cc(C2=CC3CCCC(C2)N3C(=O)c2ccc(Cl)nc2)c2cc[nH]c2n1)C1CC1 (stereo not shown)" measuredresult="> 7.70"

pIC50 measured on "CC(C)S(=O)(=O)Oc1ccc(-c2cc(NC(=O)C3CC3)nc3[nH]ccc23)cc1" = 6.70 to 7.70

pIC50 measured on "O=C(NCC(F)(F)F)c1ccc(-c2cc(NC(=O)C3CC3)nc3[nH]ccc23)cc1" = > 7.70

pIC50 measured on "CCS(=O)(=O)N1CC=C(c2cc(NC(=O)C3CC3)nc3[nH]ccc23)CC1" = 6.70 to 7.70

pIC50 measured on O=C(Nc1cc(C2=CCC(NS(=O)(=O)CCCF)CC2)c2cc[nH]c2n1)C1CC1 (stereo not shown) = > 7.70

pIC50 measured on O=C(Nc1cc(C2=CCC(NS(=O)(=O)C(F)(F)F)CC2)c2cc[nH]c2n1)C1CC1 (stereo not shown) = 6.70 to 7.70

pIC50 measured on "O=C(Nc1cc(-c2ccc(NC3CCN(C(=O)c4ccnc(F)c4)CC3)c(F)c2)c2cc[nH]c2n1)C1CC1" = < 6.70

pIC50 measured on CC1CN(C(=O)Cc2cccc(F)c2)CC=C1c1cc(NC(=O)C2CC2)nc2[nH]ccc12 (stereo not shown) = 6.70 to 7.70

pIC50 measured on "O=C(Nc1cc(C2=CCN(C(=O)N3CCOCC3)CC2)c2cc[nH]c2n1)C1CC1" = < 6.70

pIC50 measured on "CC1(C)CC(c2cc(NC(=O)C3CC3)nc3[nH]ccc23)=CCN1C(=O)c1ccnc(F)c1" = > 7.70

pIC50 measured on "Cc1cc(NS(=O)(=O)CC2(CC#N)CC2)ccc1-c1cc(NC(=O)C2CC2)nc2[nH]ccc12" = > 7.70

pIC50 measured on "N#CC1(CS(=O)(=O)N2C3CCC2CN(c2cc(NC(=O)C4CC4)nc4[nH]ccc24)C3)CC1" = > 7.70

pIC50 measured on CCS(=O)(=O)N1CC(CC#N)(N2CC=C(c3cc(NC(=O)C4CC4)nc4[nH]ccc34)C(C)C2)C1 (stereo not shown) = > 7.70

pIC50 measured on "O=C(Nc1cc(-c2ccc(C3(C(=O)N4CCS(=O)(=O)CC4)CC3)cc2)c2cc[nH]c2n1)C1CC1" = 6.70 to 7.70

pIC50 measured on "O=C(Nc1nc(-c2ccc(NS(=O)(=O)CCCC(F)(F)F)cc2)c2nc[nH]c2n1)C1CC1" = < 6.70

pIC50 measured on "N#CCCCS(=O)(=O)Nc1ccc(-c2cc(NC(=O)C3CC3)nc3[nH]ccc23)cc1F" = > 7.70

pIC50 measured on "N#CCC(=O)N1C2CCC1CN(c1cc(NC(=O)C3CC3)nc3[nH]ccc13)C2" = > 7.70

pIC50 measured on "O=C(Nc1cc(-c2ccc(C(F)(F)C(=O)N3CCS(=O)(=O)CC3)cc2)c2cc[nH]c2n1)C1CC1" = 6.70 to 7.70

pIC50 measured on CC1CN(C(=O)c2ccnc(O)c2)CC=C1c1cc(NC(=O)C2CC2)nc2[nH]ccc12 (stereo not shown) = < 6.70

====

Below, each of the compounds is paired with its reported IC50 value.
Molecular target: JAK1 (Homo sapiens (Human))
Test: Analysis of JAK1 activity inhibition ability (ADP-Glo Kinase Assay)
Assay type: biochemical
Settings: JAK1 enzyme, ADP-Glo luminescence, ATP 250 uM, IRS-itide substrate, 30° C. 40 minutes; read-out: IC50
Description: Test Example 1: Analysis of JAK1 Activity Inhibition Ability of Compound of Formula 1 (ADP-Glo™ Kinase Assay) A JAK inhibition ability of a compound according to the present invention was identified as follows. A control material and a test material were prepared for each concentration, in such a way that they were diluted by means of DMSO. […]

compound="CCNC(=S)Nc1ccc(-c2nc(NC(=O)C3CC3)nc3[nH]ccc23)cc1 [Example 466]" studysystem="JAK1 (Homo sapiens (Human))" measuredresult="20 to 200 nM"
compound="CCS(=O)(=O)Nc1ccc(-c2cc(NC(=O)C3CC3)nc3[nH]cnc23)cc1 [Example 207]" studysystem="JAK1 (Homo sapiens (Human))" measuredresult="> 200 nM"
compound="N#CCC(=O)N1CC=C(c2cc(NC(=O)C3CC3)nc3[nH]ccc23)CCC1 [Example 422]" studysystem="JAK1 (Homo sapiens (Human))" measuredresult="< 20 nM"

IC50 measured on CCOC(=O)N1CCN(C(=O)Cc2ccc(-c3cc(NC(=O)C4CC4)nc4[nH]ccc34)cc2)CC1 [Example 565] = 20 to 200 nM

IC50 measured on N#CCCNC(=O)C1CC=C(c2cc(NC(=O)C3CC3)nc3[nH]ccc23)CC1 (centres unmarked) [Example 532] = 20 to 200 nM

IC50 measured on C[C@@H]1CN(C(=O)CC#N)CC=C1c1cc(N)nc2[nH]ccc12 [Example 705] = > 200 nM

IC50 measured on N#CCC1(CS(=O)(=O)NC2CC=C(c3cc(NC(=O)C4CC4)nc4[nH]ccc34)CC2)CC1 (centres unmarked) [Example 156] = < 20 nM

IC50 measured on Cc1c(NS(=O)(=O)C2CC2)ccc(-c2cc(NC(=O)C3CC3)nc3[nH]ccc23)c1C [Example 133] = < 20 nM

====

Molecular target: JAK1 (Homo sapiens (Human), UniProt P23458)
Sequence (P23458 whole entry): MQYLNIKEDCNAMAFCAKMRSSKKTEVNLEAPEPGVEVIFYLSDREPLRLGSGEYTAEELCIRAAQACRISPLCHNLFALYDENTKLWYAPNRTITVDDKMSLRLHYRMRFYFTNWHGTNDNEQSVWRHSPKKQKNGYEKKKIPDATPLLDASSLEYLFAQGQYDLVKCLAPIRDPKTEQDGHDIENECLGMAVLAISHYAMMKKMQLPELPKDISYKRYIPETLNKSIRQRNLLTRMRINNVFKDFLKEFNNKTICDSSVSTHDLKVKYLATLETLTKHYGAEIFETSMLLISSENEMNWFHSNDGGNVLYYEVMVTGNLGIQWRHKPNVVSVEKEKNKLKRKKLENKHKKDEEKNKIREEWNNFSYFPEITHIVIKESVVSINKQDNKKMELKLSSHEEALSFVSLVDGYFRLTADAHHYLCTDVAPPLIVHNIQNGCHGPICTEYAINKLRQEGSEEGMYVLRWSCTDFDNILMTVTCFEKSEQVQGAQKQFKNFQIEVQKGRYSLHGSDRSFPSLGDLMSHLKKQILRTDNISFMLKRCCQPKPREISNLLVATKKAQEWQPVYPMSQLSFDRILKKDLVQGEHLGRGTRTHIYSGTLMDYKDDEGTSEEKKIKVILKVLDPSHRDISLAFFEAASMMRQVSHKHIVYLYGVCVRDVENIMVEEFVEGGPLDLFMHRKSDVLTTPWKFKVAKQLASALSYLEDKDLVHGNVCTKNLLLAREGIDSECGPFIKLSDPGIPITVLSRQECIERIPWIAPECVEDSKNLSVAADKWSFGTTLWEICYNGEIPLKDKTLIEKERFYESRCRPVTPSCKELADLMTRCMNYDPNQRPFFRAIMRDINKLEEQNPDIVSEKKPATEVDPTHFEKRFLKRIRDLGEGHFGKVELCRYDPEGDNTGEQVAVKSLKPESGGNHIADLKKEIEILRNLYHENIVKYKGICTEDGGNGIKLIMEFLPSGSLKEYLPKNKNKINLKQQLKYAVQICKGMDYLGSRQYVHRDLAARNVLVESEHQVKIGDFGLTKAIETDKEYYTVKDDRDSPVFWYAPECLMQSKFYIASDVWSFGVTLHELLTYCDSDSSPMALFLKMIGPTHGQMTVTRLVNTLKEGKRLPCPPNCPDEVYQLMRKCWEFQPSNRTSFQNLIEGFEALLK
Test: Analysis of JAK1 activity inhibition ability (ADP-Glo Kinase Assay)
Format: biochemical
Settings: JAK1 enzyme, ADP-Glo luminescence, ATP 250 uM, IRS-itide substrate, 30° C. 40 minutes; read-out: IC50
pIC50: −log10 of the molar value.
recordedMetric: pIC50

Solved cases below.
molecule=CCCS(=O)(=O)Nc1ccc(-c2cc(NC(=O)C3CC3)nc3[nH]ccc23)c(CC)c1 recordedmetric=pIC50 measuredresult="> 7.70"
molecule="CC1CN(C(=O)CC#N)CC=C1c1cc(NC(=O)C2CC2)nc2[nH]ccc12 (stereo not shown) [Example 283]" recordedmetric=pIC50 measuredresult="> 7.70"
molecule=N#CCCCS(=O)(=O)Nc1ccc(-c2nc(NC(=O)C3CC3)nc3[nH]ccc23)cc1 recordedmetric=pIC50 measuredresult="6.70 to 7.70"
molecule=O=C(Nc1cc(-c2ccc(CC(=O)N3CCS(=O)(=O)CC3)cc2)c2cc[nH]c2n1)C1CC1 recordedmetric=pIC50 measuredresult="6.70 to 7.70"
molecule=O=C(Cc1ccc(-c2cc(NC(=O)C3CC3)nc3[nH]ccc23)cc1)Nc1ccon1 recordedmetric=pIC50 measuredresult="6.70 to 7.70"
molecule=O=C(Nc1cc(-c2ccc(CC(=O)N3CCC(F)(F)C3)cc2)c2cc[nH]c2n1)C1CC1 recordedmetric=pIC50 measuredresult="> 7.70"
molecule="CC1CN(C(=O)c2ccc([N+](=O)[O-])cc2)CC=C1c1cc(NC(=O)C2CC2)nc2[nH]ccc12 (stereo not shown)" recordedmetric=pIC50 measuredresult="6.70 to 7.70"
molecule=O=C(Nc1cc(-c2cn(Cc3ccccc3)nn2)c2cc[nH]c2n1)C1CC1 recordedmetric=pIC50 measuredresult="6.70 to 7.70"
molecule="O=C(Nc1cc(C2=CCC(NC3CCN(C(=O)c4cc(F)cc(F)c4)CC3)CC2)c2cc[nH]c2n1)C1CC1 (stereo not shown)" recordedmetric=pIC50 measuredresult="< 6.70"
molecule=N#Cc1ccc(Cn2cc(-c3nc(NC(=O)C4CC4)nc4[nH]ccc34)cn2)cn1 recordedmetric=pIC50 measuredresult="< 6.70"

Please turn your attention to the following entry.
pIC50 measured on O=C(Nc1cc(C2=CC3CCCC(C2)N3C(=O)c2cccc(Br)c2)c2cc[nH]c2n1)C1CC1 (stereo not shown) = 6.70 to 7.70
